B1: TRIM55 (parent)
chain: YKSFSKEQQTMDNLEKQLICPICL

- Variants of: B1
- Assay Text: protein stability index of a GFP-peptide fusion (GPS, HEK-293T) (PSI 1-6); higher = more stable;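 also: lentivirally expressed fusions sorted by FACS into six bins by GFP to DsRed ratio, PSI derived from sequencing read proportions per bin multiplied by bin number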
- Condition Label: c terminus: a fixed tail appended
Param threshold (2) applies to protein stability index; output Criterion met when value >= threshold, Criterion not met when value < threshold.

Illustrative cases are given below, each with its answer.
L18S = Criterion met
I22K = Criterion met
N13S = Criterion not met
K6V = Criterion not met
Q8N = Criterion met

Can Q9L be said to have protein stability index at or above 2?
Criterion not met

Thanks! And D12C ?
Criterion met

What about Q8F ?
Criterion not met

Check T10L too.
Criterion met

// next record K2C
Criterion not met

Would you kindly repeat that for Q8K ?
Criterion not met

Do the same for Q9I please
Criterion not met
